Tested on: U2OS
assay-info: Incucyte cell viability with U2OS; also: unitless GR value; below 1 slowed growth and below 0 cell loss
Assay type: toxicity, cell-based
applied-conditions: human, 12 h, 10 µM, compound concentration 10 uM, replicate number 1, timepoint 12 hours
Each item that follows carries a reported Growth Rate.
Would you mind answering with just the numeric figure?

Known Growth Rate results, listed for orientation:
O=C(Nc1cc(-c2cn[nH]c2)ccc1N1CCOCC1)c1ccc(-c2ccc3ncccc3c2)o1
0.6
Nc1ncnc2c1ncn2[C@@H]1O[C@H](CO)[C@@H](O)[C@H]1O
0.84
Cc1ccc(/C(=C\CN2CCCC2)c2ccccn2)cc1
0.38
CN(C)CCN(Cc1ccc(-c2ccc(CNCCc3ccccc3)cc2)cc1)C(=O)CCC1CCCC1.Cl.Cl
-0.99

Given COc1ccc2c(c1)C(C(=O)N(Cc1ccc(N(C)C)cc1)c1ccc(C(C)C)cc1)CCC2.Cl (stereo not given) , state its recorded Growth Rate.
0.93

Source: ChEMBL document CHEMBL5058564
